# SYSTEM NAME: human DLL3 protein (extracellular segment, His tag) (human) (UniProt Q9NYJ7)
# Sequence (Q9NYJ7 27-492): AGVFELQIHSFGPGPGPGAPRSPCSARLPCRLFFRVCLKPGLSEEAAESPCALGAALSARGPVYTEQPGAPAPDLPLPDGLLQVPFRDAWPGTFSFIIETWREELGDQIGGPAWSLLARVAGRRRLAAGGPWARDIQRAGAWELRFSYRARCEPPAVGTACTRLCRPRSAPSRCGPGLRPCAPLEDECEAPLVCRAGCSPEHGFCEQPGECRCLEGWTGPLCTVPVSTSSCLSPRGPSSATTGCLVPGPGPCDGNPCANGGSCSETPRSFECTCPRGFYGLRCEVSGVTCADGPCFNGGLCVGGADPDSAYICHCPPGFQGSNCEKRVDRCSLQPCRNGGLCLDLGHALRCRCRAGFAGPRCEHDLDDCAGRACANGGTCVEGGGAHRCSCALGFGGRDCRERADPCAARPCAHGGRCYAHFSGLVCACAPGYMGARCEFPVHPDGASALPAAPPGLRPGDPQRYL
# ASSAY TEXT: SPR (Biacore 8K), antibody captured on Protein A chip, DLL3 antigen in solution, 1:1 Langmuir fit
RECORDED METRIC: Kd (nM)
Hi! Could you send only the number? It should be in nM, unit omitted.

BINDER: Hab009VL2aVH1-hFc (scFv, part only; not given: VL-VH linker and human IgG1 Fc, V domains shown, not shown: another chain or arm of the molecule; a dimerising Fc or GST; small tags and cut ends) VL: DIVMTQSPLSLPVTPGEPASISCRASQTISDYLHWYLQKPGQSPRLLIKYASQSISGVPDRFSGSGSGTDFTLKISRVEAEDVGVYYCQQGHSFPLTFGQGTKLEIK VH: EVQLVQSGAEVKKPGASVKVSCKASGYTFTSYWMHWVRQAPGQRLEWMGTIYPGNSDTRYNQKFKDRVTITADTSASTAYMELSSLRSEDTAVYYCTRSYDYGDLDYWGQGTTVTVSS
RESULT UNIT: nM
RESULT VALUE: 0.328

Q. Consider the binder shown here: Hab015VL4VH6a-hFc (scFv, part only; not given: scFv linker and human IgG1 Fc, V domains shown, not shown: another chain or arm of the molecule; a dimerising Fc or GST; small tags and cut ends) VL: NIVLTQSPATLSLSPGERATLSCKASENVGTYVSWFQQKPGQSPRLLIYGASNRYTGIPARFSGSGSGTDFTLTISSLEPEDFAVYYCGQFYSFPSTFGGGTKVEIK VH: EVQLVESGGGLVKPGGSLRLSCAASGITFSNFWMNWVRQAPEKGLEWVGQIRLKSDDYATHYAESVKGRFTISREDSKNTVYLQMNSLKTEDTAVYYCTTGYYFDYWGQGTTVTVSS What is its recorded Kd?
A. 0.000116

From: patent EP4786492A1
